assay-system: Cathepsin L2 (Homo sapiens)
Sequence (O60911 whole entry): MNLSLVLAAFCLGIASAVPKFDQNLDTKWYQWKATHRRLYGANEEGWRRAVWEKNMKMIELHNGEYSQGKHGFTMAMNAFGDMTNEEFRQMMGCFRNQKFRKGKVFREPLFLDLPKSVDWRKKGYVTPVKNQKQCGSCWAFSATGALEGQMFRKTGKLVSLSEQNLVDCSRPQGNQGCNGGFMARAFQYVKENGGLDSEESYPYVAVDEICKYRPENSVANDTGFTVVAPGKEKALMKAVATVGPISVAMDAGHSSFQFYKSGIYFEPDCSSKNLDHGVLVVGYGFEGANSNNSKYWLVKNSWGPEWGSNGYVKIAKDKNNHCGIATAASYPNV
test-protocol: Inhibition of cathepsin L2
pIC50: −log10 of the molar value.
assay-endpoint: pIC50

| smiles-text | result |
| --- | --- |
| Cc1ccc(C(=O)N[C@@H](Cc2cccc(Cl)c2)C(=O)NCC#N)cc1 | 6.00 |
| CC(C)c1cc(C(=O)N[C@@H](Cc2cccc(Cl)c2)C(=O)NCC#N)n(C)n1 | 6.30 |
| N#CCNC(=O)[C@H](Cc1cccc(Cl)c1)NC(=O)c1cccc(Cl)c1 | 6.70 |

A. Cc1nc(C)c(C(=O)N[C@@H](Cc2cccc(Cl)c2)C(=O)NCC#N)s1
B. Cc1nc(C(=O)N[C@@H](Cc2cccc(Cl)c2)C(=O)NCC#N)c(C)o1
C. Cc1ccccc1C(=O)N[C@@H](Cc1cccc(Cl)c1)C(=O)NCC#N
D. Cc1ccc(C)c(C(=O)N[C@@H](Cc2cccc(Cl)c2)C(=O)NCC#N)c1
Please rank these molecules by pIC50 in descending order. # list labels per requested ordering A, D, B, C
(A: 6.60, D: 5.80, B: 5.60, C: 5.30)

###

assay-system: Cathepsin K (Homo sapiens)
Sequence (P43235 whole entry): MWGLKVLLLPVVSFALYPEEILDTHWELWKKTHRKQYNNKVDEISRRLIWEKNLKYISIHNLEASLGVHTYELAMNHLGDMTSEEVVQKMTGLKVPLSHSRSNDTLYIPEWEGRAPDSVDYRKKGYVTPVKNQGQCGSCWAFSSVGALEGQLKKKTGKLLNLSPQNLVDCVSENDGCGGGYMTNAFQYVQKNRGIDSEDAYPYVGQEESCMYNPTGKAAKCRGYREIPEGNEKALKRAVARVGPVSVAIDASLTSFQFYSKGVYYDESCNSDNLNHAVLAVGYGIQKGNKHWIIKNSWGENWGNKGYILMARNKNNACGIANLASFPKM
pIC50: −log10 of the molar value.
assay-endpoint: pIC50

| smiles-text | pIC50 |
| --- | --- |
| Cc1ccc(C)c(C(=O)N[C@@H](Cc2cccc(Cl)c2)C(=O)NCC#N)c1 | 5.20 |
| Cc1cc(C(=O)N[C@@H](Cc2cccc(Cl)c2)C(=O)NCC#N)n(C)n1 | 5.20 |
| CCc1cc(C(=O)N[C@@H](Cc2cccc(Cl)c2)C(=O)NCC#N)n(C)n1 | 5.30 |
| N#CCNC(=O)[C@H](Cc1cccc(Cl)c1)NC(=O)C1CCCCCC1 | 5.30 |

A. Cc1ccc(C(=O)N[C@@H](Cc2cccc(Cl)c2)C(=O)NCC#N)cc1
B. Cc1ccccc1C(=O)N[C@@H](Cc1cccc(Cl)c1)C(=O)NCC#N
C. Cc1nc(C(=O)N[C@@H](Cc2cccc(Cl)c2)C(=O)NCC#N)c(C)o1
rank_up(items): orders items by reported pIC50 in ascending numerical order. # list labels per requested ordering C, B, A
(C: 5.00, B: 5.30, A: 5.90)

###

assay-system: Procathepsin L (Homo sapiens, UniProt P07711)
Sequence (P07711 whole entry): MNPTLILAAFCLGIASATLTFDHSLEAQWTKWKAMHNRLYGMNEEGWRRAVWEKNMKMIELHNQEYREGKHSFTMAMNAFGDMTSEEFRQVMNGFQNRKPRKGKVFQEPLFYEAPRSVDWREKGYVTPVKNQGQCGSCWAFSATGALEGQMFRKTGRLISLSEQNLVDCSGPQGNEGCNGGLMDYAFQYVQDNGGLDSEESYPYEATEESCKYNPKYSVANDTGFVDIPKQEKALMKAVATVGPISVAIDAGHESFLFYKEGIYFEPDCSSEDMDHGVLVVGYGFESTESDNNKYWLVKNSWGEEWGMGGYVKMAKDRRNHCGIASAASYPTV
pIC50: −log10 of the molar value.
assay-endpoint: pIC50

A. CCc1cc(C(=O)N[C@@H](Cc2cccc(Cl)c2)C(=O)NCC#N)n(C)n1
B. N#CCNC(=O)[C@H](Cc1cccc(Cl)c1)NC(=O)c1ccnc2ccccc12
C. Cc1cccc(C(=O)N[C@@H](Cc2cccc(Cl)c2)C(=O)NCC#N)c1C
Put the items above in order of decreasing pIC50. # list labels per requested ordering A, B, C

###

For Cathepsin K (Homo sapiens), measured IC50 is reported for the entries below.

Recall the recorded IC50 for Cc1cc(C(=O)N[C@@H](Cc2cccc(Cl)c2)C(=O)NCC#N)c2cc(C)ccc2c1 with Cathepsin K (Homo sapiens) and state it. > 10 µM

Recall the recorded IC50 for Cc1cccc(C(=O)N[C@@H](Cc2cccc(Cl)c2)C(=O)NCC#N)c1C with Cathepsin K (Homo sapiens) and state it. > 10 µM

Recall the recorded IC50 for N#CCNC(=O)[C@H](Cc1cccc(Cl)c1)NC(=O)C1=CCCCC1 with Cathepsin K (Homo sapiens) and state it. > 10 µM

Attribution: ChEMBL document CHEMBL1152364
